The origin of these recorded values is patent US20250302837A1.

System: Factor XIa (Homo sapiens (Human), UniProt P03951)
Metric: IC50

Indicate its recorded IC50; the compound in question is `Cc1c(S(=O)(=O)Nc2ccc(-c3nc(C(=O)O)cs3)cc2S(C)(=O)=O)sc2ccc(F)cc12` > 2 µM

###

System: UniProt:P00750
Sequence (P00750 36-562): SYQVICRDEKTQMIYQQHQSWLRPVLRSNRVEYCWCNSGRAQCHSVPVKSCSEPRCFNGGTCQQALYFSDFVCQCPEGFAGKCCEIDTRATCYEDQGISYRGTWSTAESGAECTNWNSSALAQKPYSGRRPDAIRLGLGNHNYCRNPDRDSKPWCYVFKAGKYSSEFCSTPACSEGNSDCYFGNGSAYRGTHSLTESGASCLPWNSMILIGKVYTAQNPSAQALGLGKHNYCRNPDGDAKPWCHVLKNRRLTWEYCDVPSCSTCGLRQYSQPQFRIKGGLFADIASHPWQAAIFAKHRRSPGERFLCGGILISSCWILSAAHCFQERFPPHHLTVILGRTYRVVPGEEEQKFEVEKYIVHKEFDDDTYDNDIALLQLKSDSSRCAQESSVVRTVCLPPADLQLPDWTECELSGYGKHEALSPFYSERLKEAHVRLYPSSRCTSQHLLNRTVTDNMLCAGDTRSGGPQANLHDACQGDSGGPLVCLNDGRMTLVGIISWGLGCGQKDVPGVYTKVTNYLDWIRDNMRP
pIC50: −log10 of the molar value.
Metric: pIC50

Give pIC50 for this entry on UniProt:P00750: `Cc1c(S(=O)(=O)Nc2ccc(-c3nc(C(=O)O)cs3)cc2S(C)(=O)=O)sc2ccc(F)cc12` < 5.70

###

System: Plasma kallikrein (Homo sapiens (Human))
Sequence (P03952 whole entry, looked up): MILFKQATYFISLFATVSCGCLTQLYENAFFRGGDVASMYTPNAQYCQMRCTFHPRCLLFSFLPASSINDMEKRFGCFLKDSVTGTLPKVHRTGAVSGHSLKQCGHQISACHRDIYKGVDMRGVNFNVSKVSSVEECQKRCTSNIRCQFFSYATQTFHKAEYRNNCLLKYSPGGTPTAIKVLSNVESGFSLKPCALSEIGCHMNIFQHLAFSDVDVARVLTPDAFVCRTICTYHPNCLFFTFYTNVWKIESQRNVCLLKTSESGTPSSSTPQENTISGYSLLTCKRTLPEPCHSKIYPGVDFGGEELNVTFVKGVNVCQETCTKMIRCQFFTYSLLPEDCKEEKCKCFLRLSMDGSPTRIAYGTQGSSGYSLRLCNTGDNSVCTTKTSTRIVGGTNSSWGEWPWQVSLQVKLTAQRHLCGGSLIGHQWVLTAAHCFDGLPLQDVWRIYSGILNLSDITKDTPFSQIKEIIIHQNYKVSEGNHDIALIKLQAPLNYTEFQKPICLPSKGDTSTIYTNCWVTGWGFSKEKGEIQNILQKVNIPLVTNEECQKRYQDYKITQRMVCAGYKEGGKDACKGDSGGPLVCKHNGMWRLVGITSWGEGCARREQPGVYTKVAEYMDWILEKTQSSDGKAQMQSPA
Sequence (P03952 whole entry, looked up): as above
Method notes: Serine protease selectivity assay: plasma kallikrein
Metric: IC50

Tell me measured IC50 for `Cc1c(S(=O)(=O)Nc2ccc(-c3nc(C(=O)O)cs3)cc2S(C)(=O)=O)sc2ccc(F)cc12` please. > 2000 nM

###

System: Plasmin (Homo sapiens (Human), UniProt P00747)
Sequence (P00747 whole entry, looked up): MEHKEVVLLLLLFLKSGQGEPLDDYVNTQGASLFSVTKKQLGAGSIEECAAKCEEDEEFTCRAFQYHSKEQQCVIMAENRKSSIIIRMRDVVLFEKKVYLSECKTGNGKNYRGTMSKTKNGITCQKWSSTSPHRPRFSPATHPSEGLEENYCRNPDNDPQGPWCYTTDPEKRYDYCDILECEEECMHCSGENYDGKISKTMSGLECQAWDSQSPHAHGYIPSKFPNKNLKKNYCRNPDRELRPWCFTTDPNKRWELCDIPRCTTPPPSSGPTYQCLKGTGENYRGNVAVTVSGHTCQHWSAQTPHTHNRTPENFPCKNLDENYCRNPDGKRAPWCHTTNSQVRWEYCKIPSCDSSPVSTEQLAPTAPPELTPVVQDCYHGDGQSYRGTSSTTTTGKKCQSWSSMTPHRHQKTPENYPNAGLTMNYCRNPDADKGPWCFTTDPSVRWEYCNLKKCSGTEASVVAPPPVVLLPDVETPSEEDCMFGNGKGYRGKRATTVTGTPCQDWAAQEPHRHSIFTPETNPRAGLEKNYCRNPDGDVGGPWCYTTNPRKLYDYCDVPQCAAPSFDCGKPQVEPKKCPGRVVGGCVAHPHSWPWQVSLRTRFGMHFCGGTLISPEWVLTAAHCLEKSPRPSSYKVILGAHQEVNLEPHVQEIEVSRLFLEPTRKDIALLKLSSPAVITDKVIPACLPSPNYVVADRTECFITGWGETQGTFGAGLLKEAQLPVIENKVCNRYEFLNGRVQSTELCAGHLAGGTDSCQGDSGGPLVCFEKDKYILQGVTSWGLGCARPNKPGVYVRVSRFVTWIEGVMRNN
Sequence (P00747 whole entry, looked up): as the sequence (P00747 whole entry, looked up) above
pIC50: −log10 of the molar value.
Metric: pIC50

Give the measured pIC50 for `Cc1c(S(=O)(=O)Nc2ccc(-c3nc(C(=O)O)cs3)cc2S(C)(=O)=O)sc2ccc(F)cc12` < 5.70

###

System: Factor Xa (Homo sapiens (Human))
Sequence (P00742 whole entry, looked up): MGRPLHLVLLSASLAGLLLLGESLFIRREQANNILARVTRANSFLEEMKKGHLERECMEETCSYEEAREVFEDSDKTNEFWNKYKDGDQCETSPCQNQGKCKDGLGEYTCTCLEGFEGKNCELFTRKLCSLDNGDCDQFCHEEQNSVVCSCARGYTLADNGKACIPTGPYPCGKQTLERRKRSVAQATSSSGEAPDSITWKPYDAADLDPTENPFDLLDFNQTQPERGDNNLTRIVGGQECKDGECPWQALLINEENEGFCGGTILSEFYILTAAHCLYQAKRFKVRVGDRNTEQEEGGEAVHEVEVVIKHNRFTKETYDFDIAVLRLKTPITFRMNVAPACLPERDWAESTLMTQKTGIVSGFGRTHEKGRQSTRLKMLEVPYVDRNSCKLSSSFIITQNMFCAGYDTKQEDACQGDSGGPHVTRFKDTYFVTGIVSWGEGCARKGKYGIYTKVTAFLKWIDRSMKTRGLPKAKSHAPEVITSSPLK
Sequence (P00742 whole entry, looked up): as the sequence (P00742 whole entry, looked up) above
pIC50: −log10 of the molar value.
Metric: pIC50

Quote pIC50 with test system Factor Xa (Homo sapiens (Human)) for Cc1c(S(=O)(=O)Nc2ccc(-c3nc(C(=O)O)cs3)cc2S(C)(=O)=O)sc2ccc(F)cc12 [TY-51469] < 5.70

###

System: recombinant human chymase (Homo sapiens (Human), UniProt P23946)
Sequence (P23946 22-247): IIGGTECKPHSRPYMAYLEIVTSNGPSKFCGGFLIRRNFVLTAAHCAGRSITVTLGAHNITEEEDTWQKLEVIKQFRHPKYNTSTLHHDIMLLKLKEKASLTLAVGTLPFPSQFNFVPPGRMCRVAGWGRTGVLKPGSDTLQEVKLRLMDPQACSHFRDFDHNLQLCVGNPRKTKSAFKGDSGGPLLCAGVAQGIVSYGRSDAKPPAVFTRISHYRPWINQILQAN
Method notes: Enzymatic chymase activity assay (human)
Metric: IC50
Express your answer as a number followed by its unit.

Specify IC50 for `Cc1c(S(=O)(=O)Nc2ccc(-c3nc(C(=O)O)cs3)cc2S(C)(=O)=O)sc2ccc(F)cc12` and stop. 20 nM

###

System: recombinant hamster chymase
Method notes: Enzymatic chymase activity assay (hamster)
Metric: pIC50
One number for each entry, as −log10 of the molar value.

Answer with the recorded pIC50 of Cc1c(S(=O)(=O)Nc2ccc(-c3nc(C(=O)O)cs3)cc2S(C)(=O)=O)sc2ccc(F)cc12 [TY-51469] only. 7.18

###

System: Thrombin (Homo sapiens (Human), UniProt P00734)
pIC50: −log10 of the molar value.
Metric: pIC50

Output pIC50 of `Cc1c(S(=O)(=O)Nc2ccc(-c3nc(C(=O)O)cs3)cc2S(C)(=O)=O)sc2ccc(F)cc12` < 5.70

###

System: Recombinant human cathepsin G (Homo sapiens (Human))
Sequence (P08311 21-255): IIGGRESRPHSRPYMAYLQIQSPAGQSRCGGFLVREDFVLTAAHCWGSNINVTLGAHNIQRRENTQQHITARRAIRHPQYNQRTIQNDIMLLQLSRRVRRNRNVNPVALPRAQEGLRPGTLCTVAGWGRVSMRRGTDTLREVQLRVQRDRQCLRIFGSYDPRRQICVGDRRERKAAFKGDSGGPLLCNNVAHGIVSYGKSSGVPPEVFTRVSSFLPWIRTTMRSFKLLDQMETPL
Method notes: Selectivity: cathepsin G assay
Type: biochemical
Condition context: Cathepsin G
Metric: IC50 (nM)
Answers are plain numbers, in nM.

Under Recombinant human cathepsin G (Homo sapiens (Human)), report IC50 for `Cc1c(S(=O)(=O)Nc2ccc(-c3nc(C(=O)O)cs3)cc2S(C)(=O)=O)sc2ccc(F)cc12` 1300
